- measured_on: STING (Homo sapiens, UniProt Q86WV6, G230A/H232R/R293Q/R71H)
- Sequence (Q86WV6 whole entry R71H/G230A/H232R/R293Q): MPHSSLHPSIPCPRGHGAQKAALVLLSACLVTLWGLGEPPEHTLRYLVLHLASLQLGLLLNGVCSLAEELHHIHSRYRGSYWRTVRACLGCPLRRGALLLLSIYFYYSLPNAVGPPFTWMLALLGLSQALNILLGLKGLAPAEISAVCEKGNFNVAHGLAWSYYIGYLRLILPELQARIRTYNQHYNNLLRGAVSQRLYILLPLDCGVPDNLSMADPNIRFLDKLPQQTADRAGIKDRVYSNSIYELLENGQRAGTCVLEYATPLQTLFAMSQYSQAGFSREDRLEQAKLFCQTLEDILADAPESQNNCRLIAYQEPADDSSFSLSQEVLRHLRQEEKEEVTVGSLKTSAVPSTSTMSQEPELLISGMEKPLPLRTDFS
- assay_method_text: STING reporter assay in THP1-Dual KO-IFNAR2 cells (luciferase reporter, 2′3′cGAMP stimulation)
- assay_conditions: 2′3′cGAMP 15 μM, 24 h, luciferase reporter activity, GeoMean, read-out: Pharmaron, THP1_IFNAR2 STING 24 h Luci Normalized: GeoMean EC50
pEC50: −log10 of the molar value.
List of pEC50 values.

# example entries with known answers
entry_smiles	measured_on	pEC50
O=S(=O)(CC1CC1)Nc1c[nH]c2ccc(OCCc3ccc(C(F)(F)F)cc3)cc12	STING (Homo sapiens, UniProt Q86WV6, G230A/H232R/R293Q/R71H)	6.70 to 7.40
O=S(=O)(CCC(F)(F)F)Nc1c[nH]c2ccc(OCCc3ccc(C(F)(F)F)cc3)cc12	STING (Homo sapiens, UniProt Q86WV6, G230A/H232R/R293Q/R71H)	6.00 to 6.70
Cn1cc(S(=O)(=O)Nc2c[nH]c3ccc(OCCc4ccc(C(F)(F)F)cc4)cc23)cn1	STING (Homo sapiens, UniProt Q86WV6, G230A/H232R/R293Q/R71H)	6.70 to 7.40

Any idea what its pEC50 is? The compound is O=S(=O)(CCC(F)(F)F)Nc1c[nH]c2ccc(CCOc3ccc(C(F)(F)F)cc3)cc12
6.70 to 7.40

Any idea what its pEC50 is? The compound is O=S(=O)(Nc1c[nH]c2ccc(OCCc3ccc(C(F)(F)F)cc3)cc12)C1CCOCC1
6.00 to 6.70

* * *

- measured_on: STING (Homo sapiens, UniProt Q86WV6, G230A/H232R/R293Q/R71H)
- assay_method_text: STING reporter assay in THP1-Dual KO-IFNAR2 cells (luciferase reporter, 2′3′cGAMP stimulation)
- assay_conditions: 2′3′cGAMP 15 μM, 24 h, luciferase reporter activity, GeoMean, read-out: Pharmaron, THP1_IFNAR2 STING 24 h Luci Normalized: GeoMean EC50
assay_metric: EC50

# example entries with known answers
entry_smiles	data_value
CCS(=O)(=O)Nc1c[nH]c2ccc(OCCc3ccc(C(F)(F)F)cc3)cc12	200 to 1000 nM
O=S(=O)(CC1CCOCC1)Nc1c[nH]c2ccc(CCOc3ccc(C(F)(F)F)cc3)cc12	200 to 1000 nM
Cn1cnc(S(=O)(=O)Nc2c[nH]c3ccc(OCCc4ccc(C(F)(F)F)cc4)cc23)c1	200 to 1000 nM
O=S(=O)(CC1CCC1)Nc1c[nH]c2ccc(CCOc3ccc(C(F)(F)F)cc3)cc12	200 to 1000 nM

Moving on to another molecule below.
Provide value of EC50 for this record tested with STING (Homo sapiens, UniProt Q86WV6, G230A/H232R/R293Q/R71H): O=S(=O)(CC1CC1)Nc1c[nH]c2ccc(CCOc3ccc(C(F)(F)F)cc3)cc12
200 to 1000 nM

* * *

- measured_on: STING (Homo sapiens, UniProt Q86WV6, G230A/H232R/R293Q/R71H)
- assay_method_text: STING reporter assay in THP1-Dual KO-IFNAR2 cells (luciferase reporter, 2′3′cGAMP stimulation)
- assay_conditions: 2′3′cGAMP 15 μM, 24 h, luciferase reporter activity, GeoMean, read-out: Pharmaron, THP1_IFNAR2 STING 24 h Luci Normalized: GeoMean EC50
- Experimental: STING pathway activation by the compounds described herein was measured using THP1-Dual™ cells (KO-IFNAR2). […] The following solutions were prepared for each 1×384 plate: • Solution A: 2 mL Optimem with one of the following stimuli: • […] of 10 mM 2′3′cGAMP→150 μM stock • Solution B: 2 mL Optimem with 60 μL Lipofectamine 2000→Incubate 5 min at RT • 2 mL of solution A and 2 ml Solution B was mixed and incubated for 20 min at room temperature (RT). […] Luciferase reporter activity was then measured. […]
pEC50: −log10 of the molar value.
List of pEC50 values.

# example entries with known answers
compound	pEC50
Cn1ccc(S(=O)(=O)Nc2c[nH]c3ccc(OCCc4ccc(C(F)(F)F)cc4)cc23)n1 [Compound 116]	6.00 to 6.70
COCCS(=O)(=O)Nc1c[nH]c2ccc(CCOc3ccc(C(F)(F)F)cc3)cc12 [Compound 109]	6.00 to 6.70
O=S(=O)(Cc1ccccc1)Nc1c[nH]c2ccc(OCCc3ccc(C(F)(F)F)cc3)cc12 [Compound 122]	6.70 to 7.40
Cn1cnc(S(=O)(=O)Nc2c[nH]c3ccc(CCOc4ccc(C(F)(F)F)cc4)cc23)c1 [Compound 111]	6.00 to 6.70
O=S(=O)(Nc1c[nH]c2ccc(CCOc3ccc(C(F)(F)F)cc3)cc12)C1CCOCC1 [Compound 105]	6.00 to 6.70

Moving on to another compound below.
Any idea what its pEC50 is? The compound is O=S(=O)(CC1CCC1)Nc1c[nH]c2ccc(OCCc3ccc(C(F)(F)F)cc3)cc12 [Compound 119]
6.70 to 7.40
